Assay: Phase 1 single dose escalation pharmacokinetics
Conditions: male, human, plasma, po, 20 mg

| compound | units.label | Vd/F |
| --- | --- | --- |
| O=S1(=O)c2ccc(F)cc2Oc2cc(OCC(F)(F)F)ccc21 [CX157] | L/kg | 32.9 |

---

Test: Phase 1 single dose escalation pharmacokinetics
Settings: male, human, plasma, po, 10 mg
metric: Cmax

| smiles | measured |
| --- | --- |
| O=S1(=O)c2ccc(F)cc2Oc2cc(OCC(F)(F)F)ccc21 | 20.8 ng/mL |

---

Test: Plasma and brain CX157 concentrations after oral dosing in rats
Settings: male, Sprague-Dawley, rat, plasma, po, 5 mg/kg

| smiles | concentration at 4 h |
| --- | --- |
| O=S1(=O)c2ccc(F)cc2Oc2cc(OCC(F)(F)F)ccc21 | 214 ng/mL |

---

Assay: Plasma and brain CX157 concentrations after oral dosing in rats
Details: male, Sprague-Dawley, rat, brain, po, 10 mg/kg

| smiles | concentration at 2 h |
| --- | --- |
| O=S1(=O)c2ccc(F)cc2Oc2cc(OCC(F)(F)F)ccc21 | 0.387 µg/mL |
